- assay.method.text: yeast display, Sf9 membrane polyspecificity reagent, FACS + sequencing; frameworks hold sequencing errors
readout.type: polyreactivity (PSR sort gate)

>>> result("QVQLVESGGGLVQAGGSLRLSCAASGSIFRRNSMGWYRQAPGKERELVAAITRRGGSTYYADSVKGRFTISRDNAKNTVYLQMNSLKPEDTAVYYCAADPPDGFYYTWDYDYWGQGTQVTVSS")
"low polyreactivity"
>>> result("QVQLVESGGGLVQAGGSLRLSCAASGRTFPVNGMGWYRQAPGKERELVAAITGGGSTNYADSVKGRFTISRDNAKNTVYLQMNSLKPEDTAVYYCAAGSYSRYLYSLYFDFDYWGQGTQVTVSS")
"low polyreactivity"
>>> result("QVQLVESGGGLVQAGGSLRLSCADSGITFVTYAMGWYRQAPGKERELVAAISRSGGRTYYADYVKGRFTISRENAKNTVYLQMNSLKPEDTAVYYCAAERKNKYDYWVQGTQVTVSS")
"high polyreactivity"
>>> result("QVQLVESGAGLVQAGGSLRLSCAASGLTSTNNAMGWYRQAPGKERELVAAITSGSTTNYADSVKGRFTISRDNAKNTVYLQMNSLKPEDTAVYYCAAQYGVWWRRYYYPEYDYWGQGTQVTVSS")
"low polyreactivity"
>>> result("QVQLVESGGGLVQAGGSLRLSCAASGRIFGYYAMGWYRQAPGKERELVAAISSNGGSTYYADSVKGRFTISRDNAKNTVYLQMNSLKPEDTAVYYCKVYFYSRHYFYRGDYWGQGTQVTVSS")
"high polyreactivity"

* * *

- assay.method.text: yeast display, Sf9 membrane polyspecificity reagent, FACS + sequencing; frameworks hold sequencing errors
readout.type: polyreactivity (PSR sort gate)

>>> result("QVQLVESGGGLVQAGGSLRLSCAASGSIFISYAMGWYRQAPGKERELVAAISRSAGRTYYADSVKGRFTISRDNAKNTVYLQMNSLQPEDTAVYYCAASGYKNGVYTYGYWGQGTQVTVSS")
"high polyreactivity"
>>> result("QDQLVESGGGLFQAGGSLRLSCAASGSIFGHYAMGWYRQAPGKERELVAAISWRGGSTYYADSVKGRFTISRDNAKNTVYIQMNSLKPEDTAVYYCAADRWDKAYDYWGQVTQVTVSS")
"low polyreactivity"
>>> result("QVQLVESGGGLVQAGGSLRLSCAASGSTFGSYARGWYRPAPGKERELVAAISRTGGSTRYADSVKGRFTISRDNAQNSVYFQMNSLKPEDSAVYYCNARLSSYSTIRGVYWGQGTQVTVSS")
"high polyreactivity"
>>> result("QVQLVESGGGLVQAGGSLRLSCAASGLILQYYVMGWYRQAPGKERELVAAITRSGGGTYYADSVKGRFTISRDKAKNTVYLQMNSLIPEDTAVYYCAAQRQYGKFDYWGQGTQVTVSS")
"high polyreactivity"
>>> result("QVQLVESGGGLVQAGGSLRLSCAASGSIFRVYAMGWYRQAPGKERELVAVGSTYYADSVKGRFTISRDNAKNTVYLQMNSLKPEDTAVYYCARRGKSRYSYHYWGQGTQVTVSS")
"high polyreactivity"
>>> result("QVQLVESGGGLVQAGGSLRLSCAASGSIFYSYVMGWYRQAPGKERELVAAISRNGQSTYYADSVKGRFTISRDNAKNTVYLQMNSLKPEDTAVYYCATRGTKSIKDVPGIRYGYWGQGTQVTVSS")
"high polyreactivity"
>>> result("QGQLVESGGRLVQAGGSLRLSCAASGFIFDAYAMGWYRQAPWKERELVAAIDYSGGNTYYADSVTGRFTISRDNAKNTVYLQMNSLTPEDTAVYYCNADYAGSFWSREYDYWGQGTQVTVSS")
"low polyreactivity"
>>> result("QVQLVESGGGLVQAGGILRLSCAASGRILDYYAMGWYRQAPGKERELVAAISRSGSDTYYADSVKGRFTISRDNAKNTVYLQMNSLKPEETAVYYCAARWSYRSLARYNYWGQGTQVTVSS")
"low polyreactivity"
>>> result("QVQLVESGGGLFHAGGSLRLSCAASGRIFYNYAMGWSRQAPGKERELVAAISGSGGSTYYADSVKGRFTISRDNAKNTVYLQMNSLKPDDTAVYYCSTSGPQYYSRNFDYWGQGTQVTVSS")
"low polyreactivity"
>>> result("QDQLVESGGGLVQAGGSLRLSCAASGSNFLKYTMGWYRQAPGKERELVAAITSGGTTNYADSVKGRFTISRDNAKNTVYLQMNSLKPEDTAVYYCARDSYQLGLIRDPLEYDYWGQGTQVTVSS")
"low polyreactivity"
>>> result("QVQLVESGGGLVQAGGSLRLSCAASGFIFYSYAMGWYRQAPGKERELVAAITYSGGSTYYADSVKGRFTISRDNAKNTVYLQMNSLKPEDTAVYYCADDYYHPGYIYEYWGQGTQVTVSS")
"low polyreactivity"
>>> result("QVQLVESGGGLDQAGGSLRISCAASGSTLLGNAMGWYRQAPGKERELVAAISTSGDSTNYADSVKGRFTISRDNAKNTVYLQMNSLKPEDTAVYYCNAGGYLISDVDRVGYWGQGTQVTVSS")
"low polyreactivity"
>>> result("QVQLVESGGGLVQAGGSLRLSCAASGRIFHFYAMGWYRQAPGKERELVAAISWSGGSTYYADSVKGRFTISRDNAKNTVYLQMNSLKPEDTAVYYCSKVRGEVAHRKVQYDYWGQGTQVTVSS")
"low polyreactivity"
>>> result("QVQLVESGGGLVQAGGSLRLSCAASGSIFYIYAMGWYRQAHGKERELVAAISSGGATYADSVKGRFTISRDNAKNTVYLQMNSLKPEDTAVYYFAVDRAFRAQNYHEYDYWGQGTQVTVSS")
"low polyreactivity"
>>> result("QVQLEDSGGGLVQAGGSLRLSCAASGSIFILNTMGWYREAPGKERELVAGISYSGSTYYADSVKGRFTISRDNAKNTVYLQMNSLKPEDTAVYYCAADYGAAWYNDGYYYWGQGTQVTVSS")
"low polyreactivity"
>>> result("QVQIVESGGGLVQAGGSLRLSCAASGYTFVENAMGWYRQAPGKERELVAAISNGTITYYADSVKGRFTISRDNAKNTVYLQMNSLKPEDTAVYYCADYEYWGQGTQVTVSS")
"low polyreactivity"
>>> result("QVQLVESGGGLDQAGGSLRLTCAASGFTFTIYAMGWYRQAPGKERELVATISGRAGRTYYADSVMGRFTISRDNAKNTVSLQMTSLKPEDTAVYYCNAGQWRYPGLYYYWGQGTQVNVSS")
"high polyreactivity"
>>> result("QVQLVESGGGLVQAGGSLRLSCAASGRILWFYAMGWYRQAPGKERELVAAITDSGGSTYYADSVKGRFTISRDNAKNTVYLQMNSLKPEDTAVYYCAADTYYEFQYYVILEYNYWGQGTQVTVSS")
"low polyreactivity"
>>> result("QVQLVESGGGLVQAGGSLRLSCAASGSTFARYAMGWYRQAPGKDREFVAVSTSGGSTYYADSVNGRFTISRDNAKNPVYLQMNSLKPEDTAVYYCAAQSYFVFGSYRRYYGYDYWGQGTQVTVSW")
"high polyreactivity"
>>> result("QVQLVESGGGLVQAGGSLRLSCAASGRIFSNNAMGWYRQAPGKERELVATITGSGGRTYYADSVKGRFTISRDIAKNSVYLQMNSLKPEDTAVYYCNADLYSYYWRVRYGLDYWGQGTQVTVSS")
"high polyreactivity"
>>> result("QGQLVESGGGLVQAGGSLRLTCAASGSIFYVYDIGWYRPAPGKERELVANIRDGGITYADSVKGRFTISRDNAKYTVYLQMNSLKPEDTAVYYCARDDTSPGYGDQSSNAAYYYWGQGTQVTVSS")
"low polyreactivity"
